- TARGET_ENTITY: Human Calpain 1/NS1 (Homo sapiens)
- ASSAY_SUMMARY: Calpain inhibition continuous fluorescence (FRET) assay, Human Calpain 1/NS1
- Type: biochemical
- REPORTED_CONDITIONS: Column A; read-out: Human Calpain 1/NS1 IC50
pIC50: −log10 of the molar value.
Below, each entry is listed with its recorded pIC50.

Cc1cc(C(=O)N[C@H](C=O)Cc2ccccc2)nn1-c1ccccc1 | < 5.00
Cc1cc(C(=O)N[C@@H](Cc2ccccc2)C(=O)C(N)=O)n(-c2cccc(-c3ccccc3)c2)n1 | > 5.52
Cc1cc(C(F)(F)F)cc(-n2nc(C)cc2C(=O)N[C@@H](Cc2ccccc2)C(=O)C(N)=O)n1 | > 5.52
Cc1noc(-c2ccccc2)c1C(=O)N[C@@H](Cc1ccccc1)C(=O)C(N)=O | > 5.52
Cc1cccc(-c2ccc(-n3nc(C)cc3C(=O)N[C@@H](Cc3ccccc3)C(=O)C(N)=O)cc2)c1 | > 5.52
CCOCc1cccc(-n2nc(C)cc2C(=O)N[C@@H](Cc2ccccc2)C(=O)C(N)=O)c1 | > 5.52
Cc1cc(C(=O)N[C@@H](Cc2ccccc2)C(=O)C(N)=O)n(-c2ccccc2)n1 | > 5.52
Cc1ccccc1-c1c(C(=O)N[C@@H](Cc2ccccc2)C(=O)C(N)=O)cnn1C | 5.00 to 5.52

Query NC(=O)C(=O)[C@H](Cc1ccccc1)NC(=O)c1nn[nH]c1-c1ccccc1 on Human Calpain 1/NS1 (Homo sapiens); pIC50 returned: 5.00 to 5.52

====

- TARGET_ENTITY: Human Calpain 1/NS1 (Homo sapiens)
- Sequence (P07384 1-714): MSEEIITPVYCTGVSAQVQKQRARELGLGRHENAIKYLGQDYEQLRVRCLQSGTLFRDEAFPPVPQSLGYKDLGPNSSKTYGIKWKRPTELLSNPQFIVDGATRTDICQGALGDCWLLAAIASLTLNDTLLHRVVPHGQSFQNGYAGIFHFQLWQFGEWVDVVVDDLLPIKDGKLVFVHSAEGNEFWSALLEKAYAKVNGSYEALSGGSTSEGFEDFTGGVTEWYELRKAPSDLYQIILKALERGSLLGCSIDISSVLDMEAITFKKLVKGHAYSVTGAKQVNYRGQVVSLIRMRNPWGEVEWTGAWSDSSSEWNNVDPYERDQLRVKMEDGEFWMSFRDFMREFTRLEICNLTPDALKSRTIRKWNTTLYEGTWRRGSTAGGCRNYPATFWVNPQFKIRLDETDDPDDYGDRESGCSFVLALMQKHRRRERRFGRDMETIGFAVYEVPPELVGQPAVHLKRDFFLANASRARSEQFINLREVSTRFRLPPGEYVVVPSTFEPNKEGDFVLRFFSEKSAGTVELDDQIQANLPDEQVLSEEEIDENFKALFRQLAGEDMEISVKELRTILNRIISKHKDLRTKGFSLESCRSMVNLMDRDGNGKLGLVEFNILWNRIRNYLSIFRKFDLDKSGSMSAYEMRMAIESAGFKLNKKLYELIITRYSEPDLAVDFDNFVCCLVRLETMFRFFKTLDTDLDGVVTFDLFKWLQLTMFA
- Sequence (P04632 1-268 partner): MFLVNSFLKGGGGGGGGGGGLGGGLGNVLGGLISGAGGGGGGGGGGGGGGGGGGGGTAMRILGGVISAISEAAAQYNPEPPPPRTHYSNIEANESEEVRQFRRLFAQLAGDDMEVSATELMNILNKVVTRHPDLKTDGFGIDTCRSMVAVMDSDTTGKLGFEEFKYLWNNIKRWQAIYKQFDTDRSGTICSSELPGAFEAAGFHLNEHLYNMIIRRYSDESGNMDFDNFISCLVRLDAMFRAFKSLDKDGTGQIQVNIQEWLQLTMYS
- ASSAY_SUMMARY: Calpain inhibition continuous fluorescence (FRET) assay, Human Calpain 1/NS1
- Assay type: biochemical
- REPORTED_CONDITIONS: read-out: Human Calpain 1/NS1 IC50
MEASURED_PROPERTY: IC50

The following compounds have reported results that may help.
NC(=O)C(=O)C(Cc1ccccc1)NC(=O)c1cn(-c2ccc(F)cc2)nc1-c1ccccc1 (stereo not drawn) | < 3 µM
NC(=O)C(=O)C(Cc1ccccc1)NC(=O)c1nc(C2CC2)oc1-c1ccccc1 (stereo not drawn) | < 3 µM
Cn1cc(C(=O)NC(Cc2ccccc2)C(=O)C(N)=O)c(-c2ccc(C(F)(F)F)nc2)n1 (stereo not drawn) | 3 to 10 µM
Cc1cc(C(=O)NC(Cc2ccccc2)C(=O)C(N)=O)n(-c2cccc(COCc3ccccc3)c2)n1 (stereo not drawn) | < 3 µM
CCCC[C@H](NC(=O)c1cn(C)nc1-c1ccccc1)C(=O)C(N)=O | < 3 µM

The reported value for Cc1c(C(=O)NC(Cc2ccccc2)C(=O)C(N)=O)c(-c2ccccc2)nn1C (stereo not drawn) in terms of IC50 is < 3 µM

Input Cc1nc(-c2ccccc2)c(C(=O)N[C@@H](Cc2ccc(O)cc2)C(=O)C(N)=O)o1 . Output IC50: < 3 µM

What the record says about NC(=O)C(=O)C(Cc1ccccc1)NC(=O)c1cnoc1-c1ccccc1F (stereo not drawn) : IC50 is < 3 µM

So, COc1ccc(C[C@H](NC(=O)c2oc(C)nc2-c2ccccc2)C(=O)C(N)=O)cc1 ? Its IC50 was < 3 µM

The reported value for CCCCC(NC(=O)c1oc(C)nc1-c1ccccc1)C(=O)C(=O)NC1CC1 (stereo not drawn) in terms of IC50 is < 3 µM

Item: Cc1nc(-c2cccc3c2OC(F)(F)O3)c(C(=O)NC(Cc2ccccc2)C(=O)C(N)=O)o1 (stereo not drawn) | IC50: < 3 µM

====

- TARGET_ENTITY: Human Calpain 9/NS1 (Homo sapiens, UniProt O14815)
- ASSAY_SUMMARY: Calpain inhibition continuous fluorescence (FRET) assay, Human Calpain 9/NS1
- Assay type: biochemical
- REPORTED_CONDITIONS: Column C; read-out: Human Calpain 9/NS1 IC50
pIC50: −log10 of the molar value.
MEASURED_PROPERTY: pIC50

Cc1cc(C(=O)N[C@@H](Cc2ccccc2)C(=O)C(N)=O)nn1-c1nc2ccccc2[nH]1 [Compound 264] | < 5.00
Cc1nsc(-c2ccccc2)c1C(=O)N[C@@H](Cc1ccccc1)C(=O)C(=O)NC1CC1 [Compound 116] | < 5.00
Cc1cc(C(=O)N[C@@H](Cc2ccccc2)C(=O)C(N)=O)n(-c2ncccc2C)n1 [Compound 66] | > 5.52
Cc1cc(C(=O)N[C@@H](Cc2ccccc2)C(=O)C(N)=O)nn1-c1ncc(-c2ccccc2)s1 [Compound 115] | < 5.00

Value of pIC50 reported for the molecule Cc1cc(C(=O)N[C@@H](Cc2ccccc2)C(=O)C(N)=O)n(-c2ccc(S(C)(=O)=O)cc2)n1 [Compound 17] is > 5.52

// Cc1nnn(-c2ccccc2)c1C(=O)N[C@@H](Cc1ccccc1)C(=O)C(N)=O [Compound 55] : pIC50 value = > 5.52

O=C(NC1CC1)C(=O)[C@H](Cc1ccccc1)NC(=O)c1cncn1-c1ccccn1 [Compound 41] has a reported pIC50 of 5.00 to 5.52

For reference, reported pIC50 for Cn1cc(C(=O)N[C@@H](Cc2ccccc2)C(=O)C(N)=O)c(-c2cncnc2)n1 [Compound 173] stands at > 5.52

Value of pIC50 reported for the molecule NC(=O)C(=O)[C@H](Cc1ccccc1)NC(=O)c1conc1-c1ccc(F)cc1 [Compound 289] is > 5.52

// sample Cc1nc(-c2ccccc2)c(C(=O)N[C@@H](CC(C)C)C(=O)C(N)=O)o1 [Compound 253] , its pIC50 was > 5.52

Record Cc1cc(C(=O)N[C@@H](Cc2ccccc2)C(=O)C(N)=O)n(-c2ccc(CNC(=O)OCc3ccccc3)cc2)n1 [Compound 153] . Reported pIC50: > 5.52

====

- TARGET_ENTITY: human calpain 9 (Homo sapiens)
- Construct: human calpain 9, residues 27-347, was over expressed in E. coli BL21 (DE3); hexa-histidine (N); made in house; host or cells: E. coli BL21 (DE3)
- Sequence (O14815 27-347): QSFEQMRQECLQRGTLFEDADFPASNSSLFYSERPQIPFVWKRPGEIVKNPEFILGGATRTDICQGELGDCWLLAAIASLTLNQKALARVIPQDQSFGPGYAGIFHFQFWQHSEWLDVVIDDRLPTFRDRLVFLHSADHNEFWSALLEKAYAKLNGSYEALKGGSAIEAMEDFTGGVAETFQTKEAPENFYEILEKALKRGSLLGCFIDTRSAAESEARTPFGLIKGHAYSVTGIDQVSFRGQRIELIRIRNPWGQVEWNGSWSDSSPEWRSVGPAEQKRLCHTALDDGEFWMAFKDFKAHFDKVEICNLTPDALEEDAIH
- ASSAY_SUMMARY: Calpain binding: crystal structure interaction distances, human calpain 9
- REPORTED_CONDITIONS: non-polar interactions with human calpain 9
MEASURED_PROPERTY: Interaction Distances P3-Gly189 (Å)

CCCC[C@H](NC(=O)c1oc(C)nc1-c1ccccc1)C(=O)C(N)=O | 3.8
Cn1cc(C(=O)N[C@@H](Cc2ccccc2)C(=O)C(N)=O)c(-c2ccccc2)n1 | 3.7
NC(=O)C(=O)[C@H](Cc1ccccc1)NC(=O)c1snnc1-c1ccccc1 | 4.0
NC(=O)C(=O)[C@H](Cc1ccccc1)NC(=O)c1nsnc1-c1ccccc1 | 3.8

The values you see were collected from patent US11339130B1.
